inhibition at 10 µM overview
tested on: B16; assay: Inhibition of alpha-MSH-induced melanin production in mouse B16 cells at 10 uM after 3 days; format: functional; conditions: B16, 72 h

The following compounds have reported results that may help.
                                   compound     measuredproperty  valuereported
0  CC(NNC(N)=S)c1ccccc1 (configuration not stated)  inhibition at 10 µM            36%
1              NC(=S)NN=C(c1ccccc1)c1ccccc1  inhibition at 10 µM            97%
2             CC/C(=N\N=C(\N)S)c1ccc(OC)cc1  inhibition at 10 µM         > 100%
3                C/C(=N\NC(N)=S)c1ccc(C)cc1  inhibition at 10 µM         > 100%
4               CC/C(=N\NC(N)=S)c1ccc(C)cc1  inhibition at 10 µM         > 100%
5                    C/C(=N\NC(N)=S)c1cccs1  inhibition at 10 µM            82%
6  CCC(NNC(N)=S)c1ccc(C)cc1 (configuration not stated)  inhibition at 10 µM         > 100%
7               COc1ccc(/C(C)=N/NC(N)=S)cc1  inhibition at 10 µM         > 100%

[Q] // lookup inhibition at 10 µM for `C/C(=N\N=C(/N)S)c1ccccc1`
[A] > 100%

[Q] // lookup inhibition at 10 µM for `CC/C(=N\NC(=S)Nc1ccccc1)c1ccc(C)cc1`
[A] > 100%

[Q] // lookup inhibition at 10 µM for Cc1ccc(C(C)NNC(N)=S)cc1 (configuration not stated)
[A] 61%

[Q] // lookup inhibition at 10 µM for `CC/C(=N\N=C(\N)S)c1ccc(Br)cc1`
[A] > 100%

[Q] // lookup inhibition at 10 µM for `CC(C)/C(=N\NC(N)=S)c1ccccc1`
[A] 96%

[Q] // lookup inhibition at 10 µM for `CC/C(=N\N=C(\N)S)c1ccc(Cl)cc1`
[A] > 100%

[Q] // lookup inhibition at 10 µM for `CCNC(=S)N/N=C(\CC)c1ccc(C)cc1`
[A] > 100%

[Q] // lookup inhibition at 10 µM for `CC/C(=N\NC(=S)NC)c1ccc(C)cc1`
[A] > 100%

[Q] // lookup inhibition at 10 µM for `NC(=S)N/N=C1\CCCc2ccccc21`
[A] > 100%
